Form field: IC50 (one value per entry).
Test system: 16HBE14o-
Test: Cytotoxicity against human 16HBE14o- cells assessed as cell viability incubated for 48 hrs by MTT assay
Assay type: cell-based
Conditions: 36 h, in the assay text read “36 hrs” for “48 hrs”

structure-smiles-string: CC1CCN(CCCN2/C(=C/c3cc(/C=C/c4ccc(N(C)C)cc4)[n+](C)c4ccccc34)Sc3ccccc32)CC1.[I-]
IC50 (µM): 34.8
//
structure-smiles-string: CSc1ccc(/C=C/c2cc(/C=C3\Sc4ccccc4N3CCCN3CCOCC3)c3ccccc3[n+]2C)cc1.[I-]
IC50 (µM): 58
//
structure-smiles-string: CN(C)c1ccc(/C=C/c2cc(/C=C3\Sc4ccccc4N3CCCN3CCOCC3)c3ccccc3[n+]2C)cc1.[I-]
IC50 (µM): 52.3

---

Test system: DNA
Assay: Binding affinity to ds26 DNA (unknown origin) assessed as equilibrium binding constant at 5 uM at 25 degreeC by […]
Format: nucleic-acid assay

structure-smiles-string: C[n+]1c(/C=C/c2ccc(N(c3ccccc3)c3ccccc3)cc2)cc(/C=C2\Sc3ccccc3N2CCCN2CCOCC2)c2ccccc21.[I-]
units-label: M⁻¹
Kb: 272000
--
structure-smiles-string: CC1CCN(CCCN2/C(=C/c3cc(/C=C/c4ccc(N(c5ccccc5)c5ccccc5)cc4)[n+](C)c4ccccc34)Sc3ccccc32)CC1.[I-]
units-label: M⁻¹
Kb: 154000
--
structure-smiles-string: CN(C)c1ccc(/C=C/c2cc(/C=C3\Sc4ccccc4N3CCCN3CCOCC3)c3ccccc3[n+]2C)cc1.[I-]
units-label: M⁻¹
Kb: 367000
--
structure-smiles-string: CSc1ccc(/C=C/c2cc(/C=C3\Sc4ccccc4N3CCCN3CCOCC3)c3ccccc3[n+]2C)cc1.[I-]
units-label: M⁻¹
Kb: 657000
--
structure-smiles-string: C[n+]1c(/C=C/c2ccc(C#N)cc2)cc(/C=C2\Sc3ccccc3N2CCCN2CCOCC2)c2ccccc21.[I-]
units-label: M⁻¹
Kb: 379000
--
structure-smiles-string: CSc1ccc(/C=C/c2cc(/C=C3\Sc4ccccc4N3CCCN3CCC(C)CC3)c3ccccc3[n+]2C)cc1.[I-]
units-label: M⁻¹
Kb: 755000

---

This listing pairs compounds with measured Kb.
Test system: Quadruplex DNA
Assay: Binding affinity to c-myc promoter G-quadruplex DNA Pu22 (unknown origin) assessed as equilibrium binding constant at 5 uM at 25 degreeC by […]
Type: nucleic-acid assay
readout-kind: Kb (M⁻¹)

structure-smiles-string: CC1CCN(CCCN2/C(=C/c3cc(/C=C/c4ccc(C#N)cc4)[n+](C)c4ccccc34)Sc3ccccc32)CC1.[I-]
readout-kind: Kb
numeric-value: 983000
//
structure-smiles-string: CC1CCN(CCCN2/C(=C/c3cc(/C=C/c4ccc(N(c5ccccc5)c5ccccc5)cc4)[n+](C)c4ccccc34)Sc3ccccc32)CC1.[I-]
readout-kind: Kb
numeric-value: 907000
//
structure-smiles-string: CC1CCN(CCCN2/C(=C/c3cc(/C=C/c4ccc(O)cc4)[n+](C)c4ccccc34)Sc3ccccc32)CC1.[I-]
readout-kind: Kb
numeric-value: 550000
//
structure-smiles-string: C[n+]1c(/C=C/c2ccc(C#N)cc2)cc(/C=C2\Sc3ccccc3N2CCCN2CCOCC2)c2ccccc21.[I-]
readout-kind: Kb
numeric-value: 443000
//
structure-smiles-string: CSc1ccc(/C=C/c2cc(/C=C3\Sc4ccccc4N3CCCN3CCOCC3)c3ccccc3[n+]2C)cc1.[I-]
readout-kind: Kb
numeric-value: 486000
